System: Blattella germanica (cockroach nymphs)
Assay: insecticidal mortality test, residual, plastic pot
Assay type: in vivo
Conditions: 72 h, 3 days, read-out: grading of mortality, BG
Description: The activity of the Product was determined using variety of insect pests. The Product was used in the form of liquid preparations containing 500 , 100 or 10 parts per million (ppm) by weight of the Product. The preparations were made by dissolving the Product in acetone and diluting the solutions with water containing b 0.01% by weight of a wetting agent sold under the trade name "LISSAPOL" NX until the liquid preparations contained the required concentration of the Product. […]
// values below are reported mortality at 500 ppm

compound: CC(C)(COCc1cccc(Oc2ccccc2)n1)C(F)F [Compound 5]
mortality at 500 ppm: 80 to 100%
--
compound: CCC(C)(COCc1cccc(Oc2ccccc2)c1)C(F)F (racemic) [Compound 3]
mortality at 500 ppm: < 50%
--
compound: CC(C)(COCc1ccc(F)c(Oc2ccccc2)c1)C(F)F [Compound 1]
mortality at 500 ppm: 80 to 100%
--
compound: CC(C)(CF)COCc1ccc(F)c(Oc2ccccc2)c1 [Compound 7]
mortality at 500 ppm: 80 to 100%
--
compound: CC(C)(COCc1cccc(Oc2ccccc2)c1)C(F)F [Compound 2]
mortality at 500 ppm: 80 to 100%
--
compound: CC(C)(CF)COCc1cccc(Oc2ccccc2)c1 [Compound 8]
mortality at 500 ppm: < 50%
--
compound: CC(C)(COCc1ccc(F)c(Cc2ccccc2)c1)C(F)F [Compound 4]
mortality at 500 ppm: 50 to 79%
